Sourced from paper PMC13304707

Test: Cell cytotoxicity, CCK-8 assay
Assay type: cell-based
Settings: African green monkey, Vero E6 cells
readout name: CC50 at 48 h (µM)
One number for each entry, in µM.

{"compound": "C[C@@H]1COCCN1c1cc(=O)n2c(n1)N(Cc1cncc(Cl)c1)[C@H](C(F)(F)F)CC2 [SAR405]", "readout name": "CC50 at 48 h", "measured result": 116}
{"compound": "CC(C)(O)CNc1ncc(-c2ccnc(Nc3ccnc(Cl)c3)n2)c(CC2CC2)n1 [VPS34-IN-1]", "readout name": "CC50 at 48 h", "measured result": 11}
{"compound": "Nc1ncc(-c2ccnc(Nc3ccncc3)n2)c(CC2CC2)n1 [PIK-III]", "readout name": "CC50 at 48 h", "measured result": 45.8}

Here is another compound to look at.
[Q] Please report the recorded CC50 at 48 h for CC(C)C(=O)CN1c2nc(N3CCOC[C@H]3C)cc(=O)n2CC[C@H]1C(F)(F)F [VPS34-IN-2] .
[A] 54.5

====

Test: Plasma PK profile after single intraperitoneal injection
Format: in vivo, C57BL/6 mice
Conditions: C57BL/6, mouse, ip, 10 mg/kg, Tmax, mice, 10 mg/kg ip
readout name: Tmax
Units required after the number.

[Q] What value of Tmax has been reported for the following compound? "C[C@@H]1COCCN1c1cc(=O)n2c(n1)N(Cc1cncc(Cl)c1)[C@H](C(F)(F)F)CC2"
[A] 8.4 min
